Molecular target: T1, recombinant human CD14 (B294801, histidine tagged) (Homo sapiens, UniProt P08571)
T1 construct: His; purchased Shanghai BaiYing Biotechnology Co., Ltd B294801 (Batch number 20200518A22)
T1 sequence (P08571 20-345): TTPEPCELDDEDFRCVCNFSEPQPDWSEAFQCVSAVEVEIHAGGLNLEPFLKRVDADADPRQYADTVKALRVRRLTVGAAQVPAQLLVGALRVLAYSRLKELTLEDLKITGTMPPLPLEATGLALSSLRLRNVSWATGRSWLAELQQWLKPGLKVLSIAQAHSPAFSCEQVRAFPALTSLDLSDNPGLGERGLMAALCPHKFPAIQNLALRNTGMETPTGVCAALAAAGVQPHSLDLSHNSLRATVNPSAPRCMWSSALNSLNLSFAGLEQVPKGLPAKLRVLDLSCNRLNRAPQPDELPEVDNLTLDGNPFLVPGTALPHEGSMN
Assay: Biacore 8K kinetic and affinity test of humanized antibodies (Example 8)
Assay type: binding
Conditions: Biacore 8K, analyte B294801 0.78125-25 nM, capture 1 μg/mL
MEASURED PROPERTY: koff (1:1 binding) (s⁻¹)
A number alone suffices; assume s⁻¹.

Request: Fill in: koff (1:1 binding) of D6DD3D002: humanized anti-CD14 antibody; VH SEQ ID NO: 5, VL SEQ ID NO: 7 (antibody, V domains shown) VH: QVQLQESGPGLVKPSQTLSLTCTVSGGSISSDSAWNWIRQHPGKGLEWIGYISYSGSTSYNPSLKSRVTISRDTSKNQFSLKLSSVTAADTAVYYCVRGLRFAYWGQGTLVTVSS VL: EIVLTQSPATLSLSPGERATLSCRASESVDSYVNSFLHWYQQKPGQAPRLLIYRASNLQSGIPARFSGSGSRTDFTLTISSLEPEDVAVYYCQQSNEDPYTFGQGTKLEIK is ___
Result: 0.00292

Request: Fill in: koff (1:1 binding) of D6DD3D004: humanized anti-CD14 antibody; VH SEQ ID NO: 13, VL SEQ ID NO: 15 (antibody, V domains shown) VH: QLQLQESGPGLVKPSETLSLTCTVSGGSISSDSAWNWIRQPPGKGLEWIGYISYSGSTSYNPSLKSRVTISRDTSKNQFSLKLSSVTAADTAVYYCVRGLRFAYWGQGTLVTVSS VL: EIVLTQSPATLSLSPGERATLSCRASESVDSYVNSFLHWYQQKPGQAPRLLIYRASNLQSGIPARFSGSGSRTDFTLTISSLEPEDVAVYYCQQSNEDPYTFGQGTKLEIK is ___
Result: 0.00326

Request: Fill in: koff (1:1 binding) of D6DD3D010: humanized anti-CD14 antibody; VH SEQ ID NO: 37, VL SEQ ID NO: 39 (antibody, V domains shown) VH: QVQLQESGPGLVKPSETLSLTCTVSGYSITSDSAWNWIRQPPGKGLEWIGYISYSGSTSYNPSLKSRVTISRDTSKNQFSLKLSSVTAADTAVYYCVRGLRFAYWGQGTLVTVSS VL: DIVLTQSPDSLAVSLGERATINCRASESVDSYVNSFLHWYQQKPGQPPKLLIYRASNLQSGVPDRFSGSGSRTDFTLTISSLQAEDVAVYYCQQSNEDPYTFGQGTKLEIK is ___
Result: 0.00105

Request: Fill in: koff (1:1 binding) of D6DD3D003: humanized anti-CD14 antibody; VH SEQ ID NO: 9, VL SEQ ID NO: 11 (antibody, V domains shown) VH: QVQLQESGPGLVKPSETLSLTCTVSGGSISSDSAWNWIRQPPGKGLEWIGYISYSGSTSYNPSLKSRVTISRDTSKNQFSLKLSSVTAADTAVYYCVRGLRFAYWGQGTLVTVSS VL: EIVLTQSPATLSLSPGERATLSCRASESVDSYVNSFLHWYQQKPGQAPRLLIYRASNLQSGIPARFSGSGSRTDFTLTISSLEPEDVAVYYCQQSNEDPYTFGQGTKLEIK is ___
Result: 0.00295

Request: Fill in: koff (1:1 binding) of D6DD3D007: humanized anti-CD14 antibody; VH SEQ ID NO: 25, VL SEQ ID NO: 27 (antibody, V domains shown) VH: QVQLQESGPGLVKPSQTLSLTCTVSGGSISSDSAWNWIRQHPGKGLEWIGYISYSGSTSYNPSLKSRVTISRDTSKNQFSLKLSSVTAADTAVYYCVRGLRFAYWGQGTLVTVSS VL: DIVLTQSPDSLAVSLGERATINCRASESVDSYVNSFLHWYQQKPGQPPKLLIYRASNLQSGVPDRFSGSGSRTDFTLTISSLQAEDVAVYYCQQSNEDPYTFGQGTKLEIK is ___
Result: 0.00342

Request: Fill in: koff (1:1 binding) of D6DD3D008: humanized anti-CD14 antibody; VH SEQ ID NO: 29, VL SEQ ID NO: 31 (antibody, V domains shown) VH: QVQLQESGPGLVKPSETLSLTCTVSGGSISSDSAWNWIRQPPGKGLEWIGYISYSGSTSYNPSLKSRVTISRDTSKNQFSLKLSSVTAADTAVYYCVRGLRFAYWGQGTLVTVSS VL: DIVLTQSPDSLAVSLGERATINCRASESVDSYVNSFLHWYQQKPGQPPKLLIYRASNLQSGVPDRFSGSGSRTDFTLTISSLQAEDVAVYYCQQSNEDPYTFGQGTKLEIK is ___
Result: 0.00329

Request: Fill in: koff (1:1 binding) of D6DD3D009: humanized anti-CD14 antibody; VH SEQ ID NO: 33, VL SEQ ID NO: 35 (antibody, V domains shown) VH: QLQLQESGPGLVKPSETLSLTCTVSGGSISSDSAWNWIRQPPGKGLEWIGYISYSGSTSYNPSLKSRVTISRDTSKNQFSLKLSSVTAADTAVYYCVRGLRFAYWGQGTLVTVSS VL: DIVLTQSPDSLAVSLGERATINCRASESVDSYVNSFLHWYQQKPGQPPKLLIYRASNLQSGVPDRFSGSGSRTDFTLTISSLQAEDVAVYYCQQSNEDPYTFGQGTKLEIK is ___
Result: 0.00379

Request: Fill in: koff (1:1 binding) of D6DD3D013: humanized anti-CD14 antibody; VH SEQ ID NO: 49, VL SEQ ID NO: 51 (antibody, V domains shown) VH: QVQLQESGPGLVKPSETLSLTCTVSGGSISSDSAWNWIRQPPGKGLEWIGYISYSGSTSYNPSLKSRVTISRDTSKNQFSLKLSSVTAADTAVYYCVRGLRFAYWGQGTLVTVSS VL: DIQLTQSPSSLSASVGDRVTITCRASESVDSYVNSFLHWYQQKPGKAPKLLIYRASNLQSGVPSRFSGSGSRTDFTLTISSLQPEDVATYYCQQSNEDPYTFGQGTKLEIK is ___
Result: 0.00282
